The values you see were collected from ChEMBL document CHEMBL4402547.

TARGET DESC: Potassium voltage-gated channel subfamily KQT member 2 (Homo sapiens, UniProt O43526)
Sequence (O43526 whole entry): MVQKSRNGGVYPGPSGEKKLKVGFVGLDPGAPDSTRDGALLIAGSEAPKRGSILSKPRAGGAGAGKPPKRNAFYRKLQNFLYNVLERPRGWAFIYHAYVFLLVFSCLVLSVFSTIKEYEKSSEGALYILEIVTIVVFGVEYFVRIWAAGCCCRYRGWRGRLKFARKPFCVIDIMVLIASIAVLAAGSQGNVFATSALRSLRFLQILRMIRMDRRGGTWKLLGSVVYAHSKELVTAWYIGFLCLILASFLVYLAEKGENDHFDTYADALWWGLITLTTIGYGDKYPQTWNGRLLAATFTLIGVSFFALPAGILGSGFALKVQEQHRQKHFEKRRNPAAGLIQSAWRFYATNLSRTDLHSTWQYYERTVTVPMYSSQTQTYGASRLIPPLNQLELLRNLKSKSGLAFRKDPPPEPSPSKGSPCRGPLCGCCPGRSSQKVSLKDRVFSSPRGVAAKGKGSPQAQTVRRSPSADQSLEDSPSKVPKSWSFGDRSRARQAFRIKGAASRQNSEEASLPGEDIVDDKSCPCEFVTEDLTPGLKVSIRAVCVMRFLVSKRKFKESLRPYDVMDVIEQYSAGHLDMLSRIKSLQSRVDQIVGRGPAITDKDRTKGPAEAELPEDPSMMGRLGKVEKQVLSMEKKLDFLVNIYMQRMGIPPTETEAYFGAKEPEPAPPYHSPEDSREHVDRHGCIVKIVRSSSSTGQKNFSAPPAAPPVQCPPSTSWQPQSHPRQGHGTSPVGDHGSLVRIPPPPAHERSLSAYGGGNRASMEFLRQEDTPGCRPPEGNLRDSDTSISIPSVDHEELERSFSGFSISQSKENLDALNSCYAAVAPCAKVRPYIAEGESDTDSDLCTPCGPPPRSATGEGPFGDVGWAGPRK
MEASUREMENT PROTOCOL: Activation of human Kv7.2 expressed in CHO cells assessed as increase in current amplitude at 10 uM measured at holding potential of 0 mV by whole cell patch clamp electrophysiology assay relative to control
Type: cell-based
Active and inactive are the calls of the source. The calls are words filed in the database; no cut-off is given here.
Outcomes: YES for active, NO for inactive

CC(C)(C)CNC(=N)Nc1ccc2c(c1)CCN2Cc1ccc(F)cc1; NO
CC(=O)Nc1ccc2c(c1)CCN2Cc1ccc(F)cc1; NO
O=S(=O)(Nc1ccc2c(c1)CCN2Cc1ccc(F)cc1)c1ccccc1; NO
COc1ccc(CN2CCc3cc(NS(=O)(=O)C4CCCCC4)ccc32)cc1; YES
CCCCCCC(=O)Nc1ccc2c(c1)CCC/C2=C\c1ccc(C(F)(F)F)cc1; NO
CCCCN(C)CC(=O)Nc1ccc2c(ccn2Cc2ccc(C(F)(F)F)cc2)c1; NO
CC1(C)[C@@H]2CC[C@@]1(CS(=O)(=O)Nc1ccc3c(c1)CCN3Cc1ccc(F)cc1)C(=O)C2; NO
CCOC(=O)Nc1ccc2c(c1)CCN2Cc1ccc(F)cc1; NO
CCCCCCC(=O)Nc1ccc2c(ccn2Cc2ccc(OCOC)cc2)c1; NO
O=S(=O)(Nc1ccc2c(c1)CCN2Cc1ccc(F)cc1F)C1CCCCC1; YES
COc1ccc(CN2c3ccc(NS(=O)(=O)C4CCCCC4)cc3CC2C)cc1 (racemic); NO
CCCCS(=O)(=O)Nc1ccc2c(c1)CCN2Cc1ccc(F)cc1; NO
CC1(C)[C@H]2CC[C@]1(CS(=O)(=O)Nc1ccc3c(c1)CCN3Cc1ccc(F)cc1)C(=O)C2; NO
O=S(=O)(Nc1ccc2c(c1)CCN2Cc1ccc(F)cc1)N1CCCCCC1; NO
O=S(=O)(CCC1CCCCC1)Nc1ccc2c(ccn2Cc2ccc(F)cc2)c1; NO
CC(C)(C)CC(=O)Nc1ccc2c(ccn2Cc2ccc(C(F)(F)F)cc2)c1; YES
O=[N+]([O-])c1cc(Br)ccc1CN1CCc2cc(NS(=O)(=O)C3CCCCC3)ccc21; YES
CCCCCCC(=O)Nc1ccc2c(ccn2Cc2ccc(C(F)(F)F)cc2)c1; YES
CCCCNCC(=O)Nc1ccc2c(ccn2Cc2ccc(C(F)(F)F)cc2)c1; NO
CCCCCCC(=O)Nc1ccc2c(c1)CCC/C2=C/c1ccc(C(F)(F)F)cc1; NO
O=C(Nc1ccc2c(c1)CCN2Cc1ccc(F)cc1)C1CCCCC1; NO
CC(C)CS(=O)(=O)Nc1ccc2c(c1)CCN2Cc1ccc(F)cc1; NO
CC1CC(C)CN(S(=O)(=O)Nc2ccc3c(c2)CCN3Cc2ccc(F)cc2)C1 (configuration not stated); NO
O=C(c1ccc(F)cc1)N1CCc2cc(NS(=O)(=O)C3CCCCC3)ccc21; NO
CCCCCCCCCCCCCCCC(=O)Nc1ccc2c(ccn2Cc2ccc(C(F)(F)F)cc2)c1; NO
O=S(=O)(Nc1ccc2c(c1)CCN2Cc1ccc(C(F)(F)F)cc1C(F)(F)F)C1CCCCC1; NO
O=S(=O)(Nc1ccc2c(c1)CCN2Cc1ccc(C(F)(F)F)cc1)C1CCCCC1; NO
O=S(=O)(Nc1ccc2c(ccn2Cc2ccc(F)cc2)c1)C1CCCCC1; YES
CCCCCCS(=O)(=O)Nc1ccc2c(c1)CCN2Cc1ccc(F)cc1; NO
CCOC(=O)Nc1ccc(NCc2ccc(F)cc2)nc1N; YES
CC(C)(C)CNC(=O)Nc1ccc2c(c1)CCN2Cc1ccc(F)cc1; NO
O=C(CC1CCCCC1)Nc1ccc2c(c1)CCN2Cc1ccc(F)cc1; NO
CCCCCCC(=O)Nc1ccc2c(ccn2Cc2ccc(O)cc2)c1; NO
O=S(=O)(Nc1ccc2c(c1)CCN2Cc1ccc(F)c(F)c1)C1CCCCC1; NO
O=S(=O)(Nc1ccc2c(c1)CCN2CCc1ccc(F)cc1)C1CCCCC1; NO
O=S(=O)(Nc1ccc2c(ccn2Cc2ccc(C(F)(F)F)cc2)c1)C1CCCCC1; NO
O=C(Nc1ccc2c(c1)CCN2Cc1ccc(F)cc1)NC1CCCCC1; NO
CCCCCCC(=O)Nc1ccc2c(c1)CCCC2Cc1ccc(C(F)(F)F)cc1 (racemic); NO
COc1ccc(Cn2ccc3cc(NS(=O)(=O)C4CCCCC4)ccc32)cc1; NO
CC(C)[C@H]1CC[C@H](C)C[C@@H]1OC(=O)Nc1ccc2c(c1)CCN2Cc1ccc(F)cc1; NO
O=C(Cc1ccc(Cl)cc1)N1CCc2cc(NS(=O)(=O)C3CCCCC3)ccc21; NO
O=C(Nc1ccc(Cl)nc1)c1ccc(F)c(F)c1; YES

====

TARGET DESC: Potassium voltage-gated channel subfamily KQT member 2 (Homo sapiens)
MEASUREMENT PROTOCOL: Activation of human Kv7.2 expressed in CHO cells assessed as increase in channel current amplitude by whole cell patch clamp electrophysiology assay
PROPERTY LABEL: EC50

CC(C)(C)CC(=O)Nc1ccc2c(ccn2Cc2ccc(C(F)(F)F)cc2)c1; 630 nM

====

MEASUREMENT PROTOCOL: Photostability of compound in pH 7.4 buffer assessed as compound degradation at 100 ug/ml incubated for 4 hrs under natural solar light-irradiation by HPLC analysis relative to control
PROPERTY LABEL: Drug degradation (%)

CC(C)(C)CC(=O)Nc1ccc2c(ccn2Cc2ccc(C(F)(F)F)cc2)c1; 6.62
O=S(=O)(Nc1ccc2c(c1)CCN2Cc1ccc(F)cc1F)C1CCCCC1; 81.7
CCCCCCC(=O)Nc1ccc2c(ccn2Cc2ccc(C(F)(F)F)cc2)c1; 5.82
O=S(=O)(Nc1ccc2c(ccn2Cc2ccc(F)cc2)c1)C1CCCCC1; 15.8
CCOC(=O)Nc1ccc(NCc2ccc(F)cc2)cc1N [EZOGABINE]; 25.2
COc1ccc(CN2CCc3cc(NS(=O)(=O)C4CCCCC4)ccc32)cc1; 84.7

====

TARGET DESC: CYP450 (phase 1 metabolism) (Homo sapiens, UniProt P04798+P05177+P05181+P08684+P10632+P10635+P11509+P11712+P13584+P20813+P20815+P20853+P24462+P24903+P33260+P33261+P51589+P78329+P98187+Q02928+Q08477+Q16678+Q16696+Q5TCH4+Q6VVX0+Q7Z449+Q8TAV3+Q96SQ9+Q9HB55)
MEASUREMENT PROTOCOL: Drug metabolism in human liver S9 fractions assessed as CYP450-mediated phase 1 metabolism at 1 mM preincubated for 5 mins followed by NADPH addition and measured after 60 mins by RP-UHPLC-DAD analysis relative to control
Type: ADME, subcellular
RECORDED CONDITIONS: read-out: Drug metabolism
Documented metabolised at 1 h, 1000 µM across a set of compounds
PROPERTY LABEL: metabolised at 1 h, 1000 µM (%)

CCOC(=O)Nc1ccc(NCc2ccc(F)cc2)cc1N [EZOGABINE]; 3.11
CC(C)(C)CC(=O)Nc1ccc2c(ccn2Cc2ccc(C(F)(F)F)cc2)c1; 17.3
CCCCCCC(=O)Nc1ccc2c(ccn2Cc2ccc(C(F)(F)F)cc2)c1; 48.7

====

MEASUREMENT PROTOCOL: Lipophilicity, log P of the compound
Assay type: physicochemical
RECORDED CONDITIONS: octanol/water
PROPERTY LABEL: logP

CCCCCCC(=O)Nc1ccc2c(ccn2Cc2ccc(C(F)(F)F)cc2)c1; 6.83
CC(C)(C)CC(=O)Nc1ccc2c(ccn2Cc2ccc(C(F)(F)F)cc2)c1; 5.58

====

System: Potassium voltage-gated channel subfamily KQT member 2 (Homo sapiens), O43526 [F168L]
Sequence (O43526 whole entry F168L): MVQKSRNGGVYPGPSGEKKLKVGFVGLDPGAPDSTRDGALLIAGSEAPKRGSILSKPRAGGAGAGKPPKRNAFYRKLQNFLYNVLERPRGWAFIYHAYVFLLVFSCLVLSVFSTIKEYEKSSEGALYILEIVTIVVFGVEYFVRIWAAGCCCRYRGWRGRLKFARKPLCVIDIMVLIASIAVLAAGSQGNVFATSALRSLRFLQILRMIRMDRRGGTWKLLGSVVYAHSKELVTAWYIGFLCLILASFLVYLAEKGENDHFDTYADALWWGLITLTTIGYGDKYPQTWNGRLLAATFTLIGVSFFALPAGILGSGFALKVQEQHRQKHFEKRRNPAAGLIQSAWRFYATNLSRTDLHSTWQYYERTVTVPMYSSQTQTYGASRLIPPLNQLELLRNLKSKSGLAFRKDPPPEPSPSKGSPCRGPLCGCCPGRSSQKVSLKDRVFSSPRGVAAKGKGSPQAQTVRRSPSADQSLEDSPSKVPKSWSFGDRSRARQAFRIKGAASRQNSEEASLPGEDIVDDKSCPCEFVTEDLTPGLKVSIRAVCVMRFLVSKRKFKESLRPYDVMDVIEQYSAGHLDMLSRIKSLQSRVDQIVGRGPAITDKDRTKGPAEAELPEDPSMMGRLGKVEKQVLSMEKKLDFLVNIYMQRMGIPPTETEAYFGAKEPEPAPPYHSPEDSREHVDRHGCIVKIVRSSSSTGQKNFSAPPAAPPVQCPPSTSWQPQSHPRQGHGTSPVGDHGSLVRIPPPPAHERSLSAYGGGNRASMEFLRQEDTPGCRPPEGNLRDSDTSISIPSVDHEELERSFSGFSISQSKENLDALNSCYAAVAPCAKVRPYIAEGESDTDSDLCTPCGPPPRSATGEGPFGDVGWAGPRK
MEASUREMENT PROTOCOL: Activation of ICA-insensitive human Kv7.2 F168L mutant expressed in CHO cells assessed as increase in channel current amplitude at 10 uM measured at holding potential of -40 mV by whole cell patch clamp electrophysiology assay
Type: cell-based
The source made the active and inactive calls. The calls are words filed in the database; no cut-off is given here.
PROPERTY LABEL: Activity

CCCCCCC(=O)Nc1ccc2c(ccn2Cc2ccc(C(F)(F)F)cc2)c1; Active
CC(C)(C)CC(=O)Nc1ccc2c(ccn2Cc2ccc(C(F)(F)F)cc2)c1; Active
CCOC(=O)Nc1ccc(NCc2ccc(F)cc2)cc1N [EZOGABINE]; Active

====

TARGET DESC: Potassium voltage-gated channel subfamily KQT member 3 (Homo sapiens, UniProt O43525)
Sequence (O43525 whole entry): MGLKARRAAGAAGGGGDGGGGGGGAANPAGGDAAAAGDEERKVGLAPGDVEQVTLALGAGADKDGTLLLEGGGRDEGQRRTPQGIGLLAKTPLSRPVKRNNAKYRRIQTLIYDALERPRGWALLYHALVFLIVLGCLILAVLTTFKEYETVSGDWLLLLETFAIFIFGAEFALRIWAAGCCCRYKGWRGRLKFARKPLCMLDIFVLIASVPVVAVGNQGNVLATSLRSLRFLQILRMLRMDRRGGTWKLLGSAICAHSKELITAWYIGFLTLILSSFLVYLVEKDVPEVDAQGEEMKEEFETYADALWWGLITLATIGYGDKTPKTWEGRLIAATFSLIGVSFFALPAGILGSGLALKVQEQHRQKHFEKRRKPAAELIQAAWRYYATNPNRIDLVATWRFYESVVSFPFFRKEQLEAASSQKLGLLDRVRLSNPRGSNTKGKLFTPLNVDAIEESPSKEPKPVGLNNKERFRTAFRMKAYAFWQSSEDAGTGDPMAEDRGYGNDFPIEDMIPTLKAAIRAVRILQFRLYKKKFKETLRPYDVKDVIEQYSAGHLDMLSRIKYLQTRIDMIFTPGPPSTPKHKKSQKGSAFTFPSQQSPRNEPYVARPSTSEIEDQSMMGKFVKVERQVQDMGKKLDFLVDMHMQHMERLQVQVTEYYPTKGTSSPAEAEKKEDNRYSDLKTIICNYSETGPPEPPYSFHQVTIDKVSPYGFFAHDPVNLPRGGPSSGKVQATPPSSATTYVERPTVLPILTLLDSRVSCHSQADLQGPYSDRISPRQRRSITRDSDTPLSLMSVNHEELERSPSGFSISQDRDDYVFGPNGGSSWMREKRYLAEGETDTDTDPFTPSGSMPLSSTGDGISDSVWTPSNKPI
MEASUREMENT PROTOCOL: Activation of human Kv7.3 expressed in CHO cells assessed as increase in channel current amplitude by whole cell patch clamp electrophysiology assay
pEC50: −log10 of the molar value.
PROPERTY LABEL: pEC50

CC(C)(C)CC(=O)Nc1ccc2c(ccn2Cc2ccc(C(F)(F)F)cc2)c1; 6.04

====

System: NAT (phase 2 metabolism)
MEASUREMENT PROTOCOL: Drug metabolism in human liver S9 fractions assessed as assessed as NAT-mediated phase 2 metabolism at 1 mM preincubated for 5 mins followed by NADPH addition and measured after 60 mins by RP-UHPLC-DAD analysis relative to control
Assay type: ADME, subcellular
RECORDED CONDITIONS: read-out: Drug metabolism
PROPERTY LABEL: metabolised at 1 h, 1000 µM (%)

CCOC(=O)Nc1ccc(NCc2ccc(F)cc2)cc1N; 3.41
CC(C)(C)CC(=O)Nc1ccc2c(ccn2Cc2ccc(C(F)(F)F)cc2)c1; 12.7
